Value source: ChEMBL document CHEMBL1140147

molecular target: Transthyretin (Homo sapiens); assay: Inhibition of wild type-TTR expressed in Escherichia coli assessed as amyloid fibril formation at pH 4.4 at 7. 2 uM after 72 hrs by acid-mediated aggregation assay relative to control; set-up: scale not given: the % may be the effect or the level left
Measurement Type: Activity (%)

// below: answered compounds
O=C(Nc1ccccc1)Nc1cc(Br)c(O)c(Br)c1: 6
Brc1cc(Br)cc(Nc2ccccc2)c1: 8
Brc1cc(Br)cc(-c2nc3ccccc3o2)c1: 17

(P) Cc1cc(Oc2ccccc2)cc(C)c1O
(Q) Cc1cc(C)cc(-c2nc3ccccc3o2)c1
(R) Oc1c(Br)cc(Nc2ccccc2)cc1Br
# rank by Activity, ascending (min first) When ranking, write the labels in the order the request describes.
R, P, Q
